Just for reference, paper PMC6345968 is where these values come from.

Can you tell me FP signal for the items I'm about to list?
Biological target: Hsp90 in C. albicans (SC5314) lysate (Candida albicans, UniProt P46598)
Construct: endogenous in cells; host or cells: C. albicans SC5314 whole-cell lysate
Sequence (P46598 whole entry): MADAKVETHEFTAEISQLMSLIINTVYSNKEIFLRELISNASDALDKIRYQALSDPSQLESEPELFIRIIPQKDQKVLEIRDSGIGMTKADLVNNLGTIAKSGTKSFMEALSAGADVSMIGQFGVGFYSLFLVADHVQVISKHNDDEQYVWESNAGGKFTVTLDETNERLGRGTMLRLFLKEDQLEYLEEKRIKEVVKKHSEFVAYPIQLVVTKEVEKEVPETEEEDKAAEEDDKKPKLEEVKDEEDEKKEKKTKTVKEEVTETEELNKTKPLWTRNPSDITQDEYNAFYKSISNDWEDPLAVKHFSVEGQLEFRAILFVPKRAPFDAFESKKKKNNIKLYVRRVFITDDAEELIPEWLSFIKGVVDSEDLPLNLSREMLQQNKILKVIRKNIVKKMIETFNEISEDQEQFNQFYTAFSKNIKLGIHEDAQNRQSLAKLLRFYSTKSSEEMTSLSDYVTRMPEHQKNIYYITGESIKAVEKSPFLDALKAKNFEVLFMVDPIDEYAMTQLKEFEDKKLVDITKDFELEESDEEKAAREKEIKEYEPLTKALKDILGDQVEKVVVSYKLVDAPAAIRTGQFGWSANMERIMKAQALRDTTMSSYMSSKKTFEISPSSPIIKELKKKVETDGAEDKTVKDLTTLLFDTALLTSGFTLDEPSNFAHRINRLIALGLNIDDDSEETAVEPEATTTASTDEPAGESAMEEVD
Assay: biochemical
Type: binding
Settings: SC5314 lysate, 1.372 nM compound, raw

Please review the entries below; each comes with its answer.
>>> recorded_result("CC1CC2OC2C=CC=CC(=NOCc2cccc(F)c2)Cc2c(Cl)c(O)cc(O)c2C(=O)O1 (mixture of isomers)")
195
>>> recorded_result("COc1ccccc1CON=C1C=CC=CC2OC2CC(C)OC(=O)c2c(O)cc(O)c(Cl)c2C1 (mixture of isomers)")
197
>>> recorded_result("COc1ccc(CON=C2C=CC=CC3OC3CC(C)OC(=O)c3c(O)cc(O)c(Cl)c3C2)cc1 (mixture of isomers)")
206
>>> recorded_result("Cc1ccc(CON=C2C=CC=CC3OC3CC(C)OC(=O)c3c(O)cc(O)c(Cl)c3C2)cc1 (mixture of isomers)")
199

Below: the item to evaluate.
### Prompt Look up FP signal with Hsp90 in C. albicans (SC5314) lysate (Candida albicans, UniProt P46598) for this compound: CC1CC2OC2C=CC=CC(=NOCc2ccccc2)Cc2c(Cl)c(O)cc(O)c2C(=O)O1 (mixture of isomers)
### Response 194

====

System: Hsp90 in HEPG2 lysate
Conditions: HEPG2 lysate, log concentration 1.56864 (37.037 nM)
Can you tell me FP signal, Fxn Control for the items I'm about to list?
One number for each entry.

Could I get FP signal, Fxn Control for every one of these entries?
1. COc1ccccc1CON=C1C=CC=CC2OC2CC(C)OC(=O)c2c(O)cc(O)c(Cl)c2C1 (mixture of isomers)
2. Cc1ccc(CON=C2C=CC=CC3OC3CC(C)OC(=O)c3c(O)cc(O)c(Cl)c3C2)cc1 (mixture of isomers)
3. CC1(C)CC(=O)c2c(C(F)(F)F)nn(-c3ccc(C(N)=O)c(N[C@H]4CC[C@H](OC(=O)CN)CC4)c3)c2C1
4. COc1ccc(CON=C2C=CC=CC3OC3CC(C)OC(=O)c3c(O)cc(O)cc3C2)cc1 (centres unmarked)
5. COc1ccc(CON=C2C=CC=CC3OC3CC(C)OC(=O)c3c(O)cc(O)c(Cl)c3C2)cc1 (mixture of isomers)

### Response
1: 0.9809; 2: 0.9906; 3: 0.7028; 4: 1.005; 5: 1.014

====

Tested on: Hsp90 in HEPG2 lysate
Conditions: HepG2 lysate, 37.037 nM
property: FP signal (raw)
One number for each entry.

>>> recorded_result("COc1ccccc1CON=C1C=CC=CC2OC2CC(C)OC(=O)c2c(O)cc(O)c(Cl)c2C1 (mixture of isomers)")
205
>>> recorded_result("C[C@@H]1C[C@@H]2O[C@@H]2/C=C\\C=C\\C(=NOCc2ccccc2Cl)Cc2c(Cl)c(O)cc(O)c2C(=O)O1")
204
>>> recorded_result("CC1CC2OC2C=CC=CC(=NOCc2ccccc2)Cc2c(Cl)c(O)cc(O)c2C(=O)O1 (mixture of isomers)")
198

Below: the item to evaluate.
### Prompt May I ask what FP signal (raw) has been recorded for CC1CC2OC2C=CC=CC(=NOCc2cccc(F)c2)Cc2c(Cl)c(O)cc(O)c2C(=O)O1 (mixture of isomers) ?
### Response 198
